tested on: OVCAR-4 ovarian; experiment: NCI tumour cell line growth inhibition, 48 h
observation.type: GI50

[[record]]
compound = "O=C1C(Cl)=C(Nc2cccc(O)c2)C(=O)N1Cc1ccc(Cl)cc1Cl"
observation_type = "GI50"
observed_value = "2900 nM"

[[record]]
compound = "CS(=O)(=O)N(c1cc(-c2ccc3ncnc(Nc4cccc(Cl)c4)c3c2)cnc1Cl)S(C)(=O)=O"
observation_type = "GI50"
observed_value = "1040 nM"

[[record]]
compound = "O=C(/C=C\\c1cccc2ccccc12)c1cccc2ccccc12"
observation_type = "GI50"
observed_value = "11300 nM"

[[record]]
compound = "Cn1cc(C2=C(N3CCOCC3)C(=O)NC2=O)c2ccccc21"
observation_type = "GI50"
observed_value = "> 25000 nM"

[[record]]
compound = "CC(C)(C)c1ccc(NS(=O)(=O)c2ccc3nc(NC(=O)c4cnccn4)[nH]c3c2)cc1"
observation_type = "GI50"
observed_value = "5370 nM"

[[record]]
compound = "C=C(C(=O)O[C@H]1C(=O)C2=C(C)CCC3C(=C)C(=O)O[C@@H]3C2[C@]1(C)O)C1CC[C@]2(C)CCCC(=C)[C@H]2C1 (some centres undefined)"
observation_type = "GI50"
observed_value = "6690 nM"

[[record]]
compound = "COc1ccc(-c2nn(-c3ccc(NC(=O)Nc4ccc(Cl)c(C(F)(F)F)c4)cc3)cc2-c2ccncc2)cc1Cl"
observation_type = "GI50"
observed_value = "1980 nM"

[[record]]
compound = "C[C@@H]1COCCN1c1cc(C2(O)C[C@H]3CC[C@@H](C2)O3)c2cnn(-c3ccn[nH]3)c2n1 (some centres undefined)"
observation_type = "GI50"
observed_value = "39.7 nM"

[[record]]
compound = "COc1ccc2ccc3oc([N+](=O)[O-])cc3c2c1"
observation_type = "GI50"
observed_value = "828 nM"

[[record]]
compound = "CC1(C)C(=O)/C(=C\\c2cccnc2)C[C@]2(C)[C@H]3CC[C@@H]4[C@@H](C(=O)/C=C/c5ccncc5)CC[C@@]4(C)[C@]3(C)CC[C@@H]12"
observation_type = "GI50"
observed_value = "2550 nM"

[[record]]
compound = "C=C1C(=O)O[C@H]2[C@H]1CC/C(COC(=O)NCc1ccc(Cn3c(=O)sn(-c4ccccc4)c3=O)cc1)=C\\CC[C@@]1(C)O[C@@H]21"
observation_type = "GI50"
observed_value = "2740 nM"

[[record]]
compound = "Nc1c(C(=O)Nc2cccc(Cl)c2Cl)sc2nc3c(cc12)C(=O)CCC3"
observation_type = "GI50"
observed_value = "> 100000 nM"

[[record]]
compound = "Cc1cccc(Cc2cnc(NC(=O)CCc3ccc(C)o3)s2)c1"
observation_type = "GI50"
observed_value = "1230 nM"

[[record]]
compound = "COC(=O)C(C)NC(=O)c1ccccc1I(OS(=O)(=O)C(F)(F)F)c1ccccc1 (centres undefined)"
observation_type = "GI50"
observed_value = "19100 nM"

[[record]]
compound = "CC(=O)c1cc(O)c2ccccc2c1O"
observation_type = "GI50"
observed_value = "14200 nM"

[[record]]
compound = "COc1cc(-c2csc(NC(=O)Nc3cc(Cl)cc(Cl)c3)n2)cc(OC)c1OC"
observation_type = "GI50"
observed_value = "1780 nM"

[[record]]
compound = "Oc1ccc(N=Nc2ccccn2)c(O)c1"
observation_type = "GI50"
observed_value = "267 nM"

[[record]]
compound = "O=C(CCCCC(=O)N/N=C\\c1ccccc1O)N/N=C\\c1ccccc1O"
observation_type = "GI50"
observed_value = "1730 nM"

[[record]]
compound = "CCCCCCCCCCCCCCCC1=NC(C)(C)CN1C(C)C"
observation_type = "GI50"
observed_value = "2040 nM"

